Cited source for all entries: ChEMBL document CHEMBL3433997

Target: Glucose transporter (Leishmania mexicana) (UniProt O61059)
Test: ST_JUDE_LEISH: Cytotoxicity at 2uM final concentration against transgenic Leishmania Mexicana promastigotes LmGT2 that are glucose transport deficient and complemented with the L. Mexicana glucose transporter 2. Activity is measured by DNA content using SYBR green in vitro
Type: functional
Observed Property: inhibition (%)
Hi! Could you send only the number? It should be in %, unit omitted.

Measured inhibition, `CC(C)(C)OC(=O)N[C@@H](Cc1ccccc1)C(=O)Nc1cccc(-c2cccc(NC(=O)[C@H](Cc3ccccc3)NC(=O)OC(C)(C)C)c2)c1` : 0.33

Measured inhibition, `COc1ccc(C(=O)CCc2ccc(O)cc2)cc1` : 2.43

Measured inhibition, `Cn1cncc1C(=O)Nc1cccc(-c2ccc(-c3nc4cc(F)ccc4[nH]3)cc2)c1` : 3.3

Measured inhibition, `COc1cc(CNCCCNc2nc3ncccc3[nH]2)c2[nH]cc(Br)c2c1` : 21.6

Measured inhibition, `CNCc1cccc(-c2ccc3ccnc(N)c3c2)c1` : 7.76

Measured inhibition, CN(C)c1ccc(CN2CCC(CNC(=O)c3cc(-c4cccc(C(F)(F)F)c4)cs3)C2)cc1 (stereo not given) : 1.72

Measured inhibition, C=CCn1c(=N)n(CC(O)c2ccc(Cl)c(Cl)c2)c2ccccc21 (stereo not given) : 0.9

Measured inhibition, `C=CCN1CCC(N(Cc2cccc(Oc3ccccc3)c2)C(=O)C(c2ccccc2)c2ccccc2)CC1` : -2.94

Measured inhibition, `CC(C)CNCc1cccc(-c2ccc(CN(CCCN3CCN(C)CC3)C(=O)CCC3CCCC3)cc2)c1` : 9.11

Measured inhibition, O=C(Nc1cccc(Cl)c1)OC1CCCN2CCCCC12 (stereo not given) : 9.42

----------
Target: Solute carrier family 2, facilitated glucose transporter member 1 (Homo sapiens) (UniProt P11166)
Sequence (P11166 whole entry): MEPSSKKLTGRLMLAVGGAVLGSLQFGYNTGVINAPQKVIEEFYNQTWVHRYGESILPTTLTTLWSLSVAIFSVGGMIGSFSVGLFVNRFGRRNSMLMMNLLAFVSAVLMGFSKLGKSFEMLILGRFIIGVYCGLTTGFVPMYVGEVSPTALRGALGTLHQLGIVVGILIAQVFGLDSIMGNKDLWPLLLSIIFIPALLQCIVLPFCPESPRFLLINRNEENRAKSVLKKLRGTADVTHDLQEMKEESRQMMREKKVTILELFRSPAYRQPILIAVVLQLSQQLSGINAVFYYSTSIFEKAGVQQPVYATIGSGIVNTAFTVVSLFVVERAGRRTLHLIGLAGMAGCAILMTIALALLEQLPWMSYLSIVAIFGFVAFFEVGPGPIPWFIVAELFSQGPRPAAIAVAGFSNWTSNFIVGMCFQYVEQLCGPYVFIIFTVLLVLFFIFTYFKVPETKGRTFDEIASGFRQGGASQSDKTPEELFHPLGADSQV
Assay: ST_JUDE_LEISH: Cytotoxicity at 2uM final concentration against transgenic Leishmania Mexicana promastigotes LmGLUT1 that are glucose transport deficient and complemented with the human glucose transporter GLUT1. Activity is measured by DNA content using SYBR green in vitro
Type: functional
Would you mind telling me the reported inhibition of each entry?
Hi! Could you send only the number? It should be in %, unit omitted.

Measured inhibition, `CC(=O)Nc1ccc(CN(Cc2ccc(F)cc2)Cc2cccc(Oc3ccccc3)c2)cc1` : 3.19

Measured inhibition, `Fc1ccc(-c2csc3ncnc(Cl)c23)cc1` : -0.36

Measured inhibition, CCC1CN2CCc3c([nH]c4ccc(OC)cc34)C2CC1CC1NCCc2cc(OC)c(OC)cc21 (centres undefined) : 3.04

Measured inhibition, `CCc1cn(C)c2c(N3CCCC3=O)cc(C(=O)N[C@@H](Cc3ccccc3)[C@H](O)CNCc3cccc(OC)c3)cc12` : 2.48

Measured inhibition, `CCNc1cc(C(=O)N[C@@H](Cc2ccccc2)[C@H](O)CNCCc2cccc3ccccc23)cc(N2CCCC2=O)c1` : -0.63

Measured inhibition, Cc1c(C)c2c(c(C)c1O)CCC(C)(CCC(=O)O)O2 (centres undefined) : 0.86

Measured inhibition, `Cc1cccc2nc(-c3ccc(-c4ccc(CNCc5ccccc5)cc4)cc3)[nH]c12` : 3.54

Measured inhibition, `Cc1cccc2nc(-c3ccc(-c4ccc(CN5CCN(c6ccncc6)CC5)cc4)s3)[nH]c12` : 2.98

Measured inhibition, `CS(=O)(=O)CCNCc1cccc(-c2ccc3c(Nc4cc(O)c(Cl)cc4F)ccnc3c2)c1` : 6.47

Measured inhibition, COc1ccc2ncc(F)c(NC(=O)C3CCC(NCc4cc5c(F)cccc5[nH]4)CC3)c2n1 (centres undefined) : 77.5

Measured inhibition, `COc1ccccc1NC(=O)Nc1cccc(-c2cccc(-c3nc4cccc(C)c4[nH]3)c2)c1` : -1.43

Measured inhibition, `COc1ccc(CNCc2ccc(-c3cccc(-c4nc5ccccc5[nH]4)c3)cc2)cc1` : 5.98

Measured inhibition, Cc1nn(C2CCS(=O)(=O)C2)c(C)c1C1Nc2ccccc2C(=O)N1Cc1ccc2c(c1)OCO2 (centres undefined) : -0.66

Measured inhibition, `CN1CCC(N2CCN(Cc3ccc(-c4cccc(-c5nc6cc(F)ccc6[nH]5)c4)cc3)CC2)CC1` : 2.39

Measured inhibition, `Cc1cc2c(NC(=O)NC3CCN(CCc4cccc(Cl)c4)CC3)cccc2cn1` : -1.26

Measured inhibition, `Cc1cccc2nc(-c3cccc(-c4cccc(NC(=O)c5ccc(C(N)=O)cc5)c4)c3)[nH]c12` : 0.33

Measured inhibition, `CC(C)c1ccc(-c2noc(SCC(=O)N(C)c3ccc(F)cc3)n2)cc1` : -1.33

Measured inhibition, `N#Cc1cccc(C(=O)Nc2ccc(-c3nc4ccccc4[nH]3)cc2)c1` : 0.28

Measured inhibition, `Cc1ccc(N)cc1-c1nc(NC2CC(C)(C)NC(C)(C)C2)nc2c1ccc(=O)n2-c1c(F)cccc1F` : 0.73

----------
Molecular target: Solute carrier family 2, facilitated glucose transporter member 1 (Homo sapiens)
Assay: ST_JUDE_LEISH: Cytotoxicity at 2uM final concentration against transgenic Leishmania Mexicana promastigotes LmGLUT1 that are glucose transport deficient and complemented with the human glucose transporter GLUT1. Activity is measured by DNA content using SYBR green in vitro
Format: functional
Kindly return T if reported inhibition is no lower than 3%; return F if it is lower.

Problem: inhibition >= 3% for `O=C(Nc1ccc(-c2csc3nccn23)cc1)c1ccc(Cl)cc1` ?
Result: T

Problem: inhibition >= 3% for `CN1CCC(C(=O)Nc2ccc(-c3cccc(-c4nc5cc(C(F)(F)F)ccc5[nH]4)c3)cc2)CC1` ?
Result: F

Problem: inhibition >= 3% for `Cc1cc(N)c2cc(NC(=O)/C=C/c3ccc([N+](=O)[O-])cc3)ccc2n1` ?
Result: T

Problem: inhibition >= 3% for `COC(=O)c1cccc(CNCc2ccc(-c3ccc(-c4nc5cc(C(F)(F)F)ccc5[nH]4)s3)cc2)c1` ?
Result: F

Problem: inhibition >= 3% for `Cc1ccc(Nc2nc(C)cc(NC3CCN(C)CC3)n2)cc1` ?
Result: F

----------
Molecular target: Glucose transporter (Leishmania mexicana) (UniProt O61059)
Test: ST_JUDE_LEISH: Cytotoxicity at 2uM final concentration against transgenic Leishmania Mexicana promastigotes LmGT2 that are glucose transport deficient and complemented with the L. Mexicana glucose transporter 2. Activity is measured by DNA content using SYBR green in vitro
Type: functional
Observed Property: inhibition (%)
Hi! Could you send only the number? It should be in %, unit omitted.

Measured inhibition, `CCNC(=O)c1ccc2c(c1)c(C)c(C)n2Cc1ccc(F)cc1` : 1.15

Measured inhibition, `O=C(c1cc(-c2ccccc2)n[nH]1)N1CCN(S(=O)(=O)c2ccc(Cl)s2)CC1` : 2.66

Measured inhibition, `Cc1ccc(/C=C2/SC(=Nc3ccccc3)NC2=O)c(C)c1` : 7.9

Measured inhibition, `COc1cccc(C2=CC(C)(C)Oc3cc(OCCN(C)C)ccc32)c1` : 4.3

Measured inhibition, `COc1cccc(C(=O)NCc2cccs2)c1OCc1ccccc1` : 1.15

Measured inhibition, `CC(C)Cn1cc(C2CCN(CCN3CCC(CNC(=O)c4ccc(-c5ccc(C#N)cc5)cc4)CC3)CC2)c2ccccc21` : 2.53

Measured inhibition, O=C(Nc1ccc(OC2CCN(Cc3ccccc3)C2)c(Cl)c1)c1ccco1 (stereo not given) : 4.97

Measured inhibition, Cc1ccccc1C1CCN(C2CCC(NC(=O)/C=C/c3ccc4c(c3)OC(F)(F)O4)CC2)CC1 (stereo not given) : 2.92

Measured inhibition, `Cc1cccc(-c2cccc(CNc3nc(NCCc4ccc(O)cc4)nc(N4CCNCC4)n3)c2)c1` : 2.83

Measured inhibition, `COc1ccc(-c2nc(NC(=O)CS(=O)(=O)c3ccc(C)cc3)sc2C)cc1` : 0.17

----------
Target: Hexose transporter 1 (Plasmodium falciparum) (UniProt O97467)
Experiment: ST_JUDE_LEISH: Cytotoxicity at 2uM final concentration against transgenic Leishmania Mexicana promastigotes LmPfHT that are glucose transport deficient and complemented with the Plasmodium falciparum hexose transporter. Activity is measured by DNA content using SYBR green in vitro
Format: functional
Observed Property: inhibition (%)
Hi! Could you send only the number? It should be in %, unit omitted.

Measured inhibition, Cc1ccc2cc(C3NC(=O)c4ccccc4N3)c(Cl)nc2c1 (stereo not given) : 16.3

Measured inhibition, COc1cccc(C(=O)NC(NC(=S)Nc2ccc(OC)cc2[N+](=O)[O-])C(Cl)(Cl)Cl)c1 (stereo not given) : 0.44

Measured inhibition, `CC(C)N1CCC(N(Cc2ccc(-c3ccc(C(F)(F)F)cc3)cc2)C(=O)Cn2c(SCc3cccc(F)c3F)nc(=O)c3ccccc32)CC1` : 4.99

Measured inhibition, Cc1ccc(Nc2nccc(NCC(O)c3cccc(F)c3)n2)cc1 (stereo not given) : 1.15

Measured inhibition, NCC1CCCN1Cc1cccc(-c2cccc(-c3nc4cc(F)ccc4[nH]3)c2)c1 (stereo not given) : 0.88

----------
Biological target: Solute carrier family 2, facilitated glucose transporter member 1 (Homo sapiens)
Experiment: ST_JUDE_LEISH: Cytotoxicity at 2uM final concentration against transgenic Leishmania Mexicana promastigotes LmGLUT1 that are glucose transport deficient and complemented with the human glucose transporter GLUT1. Activity is measured by DNA content using SYBR green in vitro
Type: functional
Would you mind telling me the reported inhibition of each entry?
Hi! Could you send only the number? It should be in %, unit omitted.

Measured inhibition, `CCCCN(CCCC)CCCN(CCCN(CCCC)CCCC)c1cc(C)nc(Nc2ccc(Br)cc2)n1` : -1.21

Measured inhibition, `O=C(CC(=O)C(F)(F)F)c1ccc2c(c1)OCO2` : 1.45

Measured inhibition, `COc1cccc(C=CC(=O)N(CCN)Cc2ccccc2)c1` : 6.9

Measured inhibition, `Cc1sc(C)c(CNCCCNc2cc(=O)c3ccccc3[nH]2)c1Br` : 2.08

Measured inhibition, `CCN1CCN(c2cc(C)c3cc(NC(=O)c4cccc(OC)c4)ccc3n2)CC1` : 15.2

Measured inhibition, `CC(C)(C)c1ccc(CNC(=O)/C=C/c2ccc(-c3nc4cc(C(C)(C)C)ccc4[nH]3)cc2)cc1` : 2.35

Measured inhibition, `Cn1c(N)c(C(=O)CSc2nnc(-c3cccs3)n2Cc2ccccc2)c(=O)n(C)c1=O` : 10.1

Measured inhibition, `CNCC(C)(C)c1nc(-c2ccc(Cl)c(O)c2)c(-c2ccncc2)[nH]1` : -1.98

Measured inhibition, O=C(Cc1ccccc1)NC(Nc1ccc([N+](=O)[O-])cc1)C(Cl)(Cl)Cl (stereo not given) : -0.19

Measured inhibition, `O=C1CCCN1CCCNCc1cccc(-c2cccc(-c3nc4cc(F)ccc4[nH]3)c2)c1` : 0.85
